meta.source: PubChem BioAssay AID1532

- Tested on: RmlC (dTDP-4-dehydrorhamnose 3,5-epimerase) and RmlD (dTDP-4-dehydrorhamnose reductase), coupled enzyme assay
- protocol description: RmlC and RmlD coupled enzyme inhibitors, primary screen, biochemical, 384-well, compound mixtures, retest (AID 1532)
- run parameters: 384-well mixture HTS, at 5.5 µM, stronger effect = higher value
About 420 (0.38%) of roughly 110,000 compounds were called active. The sample as a whole holds a higher share of actives than the screen did.
Readings of inhibition for the listed compounds

| compound | result |
| --- | --- |
| C=CCCN(Cc1ccccc1)S(=O)(=O)c1ccccc1Br | 17.6% (inactive) |
| COC(C[C@@H]1O[C@@H]1C(=O)[C@@H](C)OCc1ccccc1)OC | 13.7% (inactive) |
| CC(C)C[C@H](CO)Nc1nc(N(C)c2cccc(Cl)c2)c2ncn(C(C)C)c2n1 | 4.1% (inactive) |
| COC(=O)CCCC1=CC2=C(c3ccccc3)C(=O)C(C)(OC(=O)C3CCCC3)C(=O)C2=CN1c1ccc(OC)cc1 (stereo not given) | 6.14% (inactive) |

Quick one: inhibition of "Cc1ccc(NC(=O)N2CCSc3ccccc32)cc1" ?
-8.05% (inactive)

---

- Test system: RmlC (dTDP-4-dehydrorhamnose 3,5-epimerase) and RmlD (dTDP-4-dehydrorhamnose reductase), coupled enzyme assay
- protocol description: RmlC and RmlD coupled enzyme inhibitors, primary screen, biochemical, 384-well, compound mixtures, retest (AID 1532)
- run parameters: 384-well mixture HTS, at 5.5 µM, stronger effect = higher value
The campaign covered roughly 110,000 compounds. About 420 (0.38%) were called active. This excerpt belongs to a sample that is enriched for actives.
# key: entry, value: inhibition
Kindly provide the numeric value in % only, without the unit symbol.

Recorded inhibition, per entry:
| chemical string | units label | inhibition |
| --- | --- | --- |
| O=C1N[C@@H](Cc2ccccc2)C(=O)N2[C@@H]3N(S(=O)(=O)c4ccc(F)cc4)c4ccccc4[C@]3(Br)C[C@@H]12 | % | -18.2 |
| Cc1ccc(-c2cc(=O)c3ccc(F)cc3[nH]2)cc1 | % | -13.2 |
| COc1ccc(-c2nc3c(s2)CCc2onc(-c4ccc(Br)cc4)c2-3)cc1 | % | -14.4 |

Now examine the next entry.
Report inhibition for "CC(C)=CCC/C(C)=C/C(=O)O" please.
2.81

---

The entries below come with measured inhibition values attached.
- Test system: RmlC (dTDP-4-dehydrorhamnose 3,5-epimerase) and RmlD (dTDP-4-dehydrorhamnose reductase), coupled enzyme assay
- protocol description: RmlC and RmlD coupled enzyme inhibitors, primary screen, biochemical, 384-well, compound mixtures, retest (AID 1532)
- run parameters: 384-well mixture HTS, at 5.5 µM, stronger effect = higher value
Screen size: about 110,000 compounds; about 420 (0.38%) were called active. This is one part of a sample in which actives are shown more often than they occur.
Answer in %, number only, no unit symbol.

| molecule | inhibition [%] |
| --- | --- |
| Cc1cccc(NC(=S)NCc2ccc3[nH]c4c(c3c2)CCCC4)c1 | -2.9 |

For the molecule "COc1cc(/C=C/CO)cc(OC)c1O[C@@H]1O[C@H](CO)[C@@H](O)[C@H](O)[C@H]1O" , what inhibition is on record?
-10.6

Another: "COc1ccc2c(c1)CC[C@@H]1[C@@H]2CC[C@]2(C)C(=O)CC[C@@H]12"
0.97

Check C#CCOCCOCCOCCNc1nc(N2CCN(C(=O)[C@H](Cc3ccc(O)cc3)n3cc(C(N)CC(C)C)nn3)CC2)nc(N2CCN(C(=O)[C@H](CCC(=O)O)n3cc(C(N)[C@H](C)CC)nn3)CC2)n1 (some centres undefined) too.
7.73

---

- Test system: RmlC (dTDP-4-dehydrorhamnose 3,5-epimerase) and RmlD (dTDP-4-dehydrorhamnose reductase), coupled enzyme assay
- protocol description: RmlC and RmlD coupled enzyme inhibitors, primary screen, biochemical, 384-well, compound mixtures, retest (AID 1532)
- run parameters: 384-well mixture HTS, at 5.5 µM, stronger effect = higher value
In all, about 110,000 compounds went through this assay and about 420 (0.38%) were called active. The full list was thinned out, with actives kept by preference.
In this section we review reported inhibition values for a set of compounds.
Report the value in % with no unit label.

Here are 4 compounds together with their reported answers.
| compound | units label | inhibition |
| --- | --- | --- |
| CCO[C@H]1OC(C(=O)Nc2ccccc2)=C[C@@H](C2CC2)[C@@H]1CCCO | % | -2.12 |
| COC(=O)Cc1cc(=O)oc2c(C)c(O)ccc12 | % | 115 |
| CCCC[C@@H]1CN=C(N)N1CCCC | % | -28.4 |
| O=C(NC1CC1)C1=C[C@H](c2coc3ccccc3c2=O)C[C@H](OCCCCO)O1 | % | -32.1 |

Look up inhibition for this compound: "CCCC(=O)Nc1cccc(-c2cn3ccsc3n2)c1"
3.46

Also check Cc1nc(-c2ccc(Cl)cc2)sc1C1(C)CC(c2ccccc2F)=NO1 (centres undefined)
7.68

Another compound to look at: "O=C(C1=C[C@H](C2CC2)C[C@H](OCc2ccc(CO)cc2)O1)N1CCN(Cc2ccccc2)CC1"
2.28

Entry to check: Cc1nc(C(=O)Nc2ccc(Cl)cc2)sc1C1(C)CC(c2ccccc2)=NO1 (centres undefined)
7.11

Next: "COC(=O)C1=C(C(=O)OC)[C@@H]2N(C)c3ccccc3[C@@]23C[C@@H](C(=O)OC)N(C(C)=O)C3=N1"
1.9

Same lookup for "CCN1C(=O)N[C@@H](CCc2ccccc2)C(C(=O)OC)=C1C" , please.
4.12

---

- Test system: RmlC (dTDP-4-dehydrorhamnose 3,5-epimerase) and RmlD (dTDP-4-dehydrorhamnose reductase), coupled enzyme assay
- protocol description: RmlC and RmlD coupled enzyme inhibitors, primary screen, biochemical, 384-well, compound mixtures, retest (AID 1532)
- run parameters: 384-well mixture HTS, measured here: mean retest inhibition, at 5.5 µM, stronger effect = higher value
The campaign covered roughly 110,000 compounds. About 420 (0.38%) were called active. The sample holds actives, similar compounds and a random draw of the others, so the mix is not that of the screen.
The label depends only on inhibition: t if it is at least 80%, f if it is smaller.

| chemical string | group |
| --- | --- |
| C=CCOC(=O)C1=C[C@H](c2ccc(Br)cc2)C[C@H](OCCCCO)O1 | f |

Is inhibition for "CCOC(=O)c1csc(NC(=O)c2ccc(S(=O)(=O)N3CCCC3)cc2)n1" at or above 80%?
t

Ok, now "CCO[C@H]1OC(C(=O)N2CCN(Cc3ccccc3)CC2)=C[C@@H](c2cn(C(C)=O)c3ccccc23)[C@@H]1CCCO"
f

One more compound: "CN1CCCc2cc(C#N)c(=O)[nH]c21"
t

Please answer likewise for "O=c1oc2cc(O)ccc2cc1-c1ccc(F)cc1"
t

Another compound to check: "CC(=O)Nc1ccc(-c2cn3cccnc3n2)cc1"
t

Next: "COc1ccc(C#Cc2c(-c3ccc(OC)cc3)oc3ccc(-c4ccc5c(c4)OCO5)cc23)cc1"
t

Please answer likewise for "Cc1c(NC(=O)c2coc(=O)c(Br)c2)c(=O)n(-c2ccccc2)n1C"
t

---

Readings of inhibition for the listed compounds
- Test system: RmlC (dTDP-4-dehydrorhamnose 3,5-epimerase) and RmlD (dTDP-4-dehydrorhamnose reductase), coupled enzyme assay
- protocol description: RmlC and RmlD coupled enzyme inhibitors, primary screen, biochemical, 384-well, compound mixtures, retest (AID 1532)
- run parameters: 384-well mixture HTS, at 5.5 µM, stronger effect = higher value
Hit rate of the full screen: of about 110,000 compounds, about 420 (0.38%) were called active. This excerpt belongs to a sample that is enriched for actives.
Could you give me the number in %? Just the number is fine.

The cases that follow already have their inhibition on record.
| chemical string | observed property | units label | numeric result |
| --- | --- | --- | --- |
| O=C(NCc1ccccc1)C1=C[C@@H](c2ccccc2)C[C@@H](OCCCCO)O1 | inhibition | % | -11.4 |
| N#CCc1c(C#N)c(N)nc(N2CCCC2)c1C#N | inhibition | % | 14.6 |

# lookup: inhibition of "COC(C[C@@H](O)[C@H](C)[C@H](O)COCc1ccccc1)OC"
2.05

// query: "O=C1CCC(=O)N(O)CCCCCNC(=O)CCC(=O)N(O)CCCCCNC(=O)CCC(=O)N(O)CCCCCN1"
-1.74

Further, for "CC1=C(N2CCN(c3ncccn3)CC2)CCC1=O" ?
12.7

Repeat for the following compound: "COc1ccc(-c2csc(N3CCN(Cc4ccc5c(c4)OCO5)CC3)n2)cc1"
25.8

---

- Test system: RmlC (dTDP-4-dehydrorhamnose 3,5-epimerase) and RmlD (dTDP-4-dehydrorhamnose reductase), coupled enzyme assay
- protocol description: RmlC and RmlD coupled enzyme inhibitors, primary screen, biochemical, 384-well, compound mixtures, retest (AID 1532)
- run parameters: 384-well mixture HTS, at 5.5 µM
Out of some 110,000 compounds screened, about 420 (0.38%) were called active. No stated cut-off is given here; in the data, active means inhibition above about 30% (passing the limit was not always enough); inconclusive means no clear call, values can overlap the other calls. The sample holds actives, similar compounds and a random draw of the others, so the mix is not that of the screen.
Your answer must be one of the following: True for active, False for inactive

Consider the following illustrative entries.
| compound | group |
| --- | --- |
| COc1cc(OC)c2ccc(=O)oc2c1C(CCN1CCN(c2ccccc2)CC1)c1ccc2c(c1)OCO2 (centres undefined) | False |
| CC(=O)Nc1cccc(-c2cnc3ccccc3n2)c1 | False |
| c1ccc(-c2cn3cccnc3n2)cc1 | True |

Field: next compound
Write down the call the test reported for this compound. Item: "CCCc1cc(=O)oc2c(C)c(O)c(CN3CCCCC3)cc12"
False
